Entries and their TGI
- System: PC-3 prostate
- PROTOCOL TEXT: NCI tumour cell line growth inhibition, 48 h

Query: Requested read-out: TGI. Entry: Cc1ccc(S(=O)(=O)SC/C=C\CSS(=O)(=O)c2ccc(C)cc2)cc1
Result: > 100 µM

----------
- Tested on: MDA-MB-435
Assign a class; possible classes are active, inactive

Query: Dear all, I need the recorded test outcome for COc1ccc(-c2noc(C(=O)O)c2-c2cc(OC)c(OC)c(OC)c2)cc1 , thank you.
Result: active

Query: Dear all, I need the recorded test outcome for O=C(O)c1nc(NCc2nc3cc(Cl)ccc3o2)n[nH]1 , thank you.
Result: inactive

Query: Dear all, I need the recorded test outcome for O=S(=O)(Nc1ccc(Br)cc1)c1ccc(-c2cnc(C3CC3)o2)cc1 , thank you.
Result: active

Query: Dear all, I need the recorded test outcome for O=C1OCC2=C1C(c1cccc(F)c1)c1cc3c(cc1N2CCO)OCO3 (centres undefined) , thank you.
Result: active

Query: Dear all, I need the recorded test outcome for Cc1ccc2cnc(N)c(C#Cc3cc(C(=O)Nc4ccc(CN5CCN(C)CC5)c(C(F)(F)F)c4)cnc3C)c2c1 , thank you.
Result: active

Query: Dear all, I need the recorded test outcome for COc1cc(C)ccc1C(=O)c1ccc(C)cc1OC , thank you.
Result: active

Query: Dear all, I need the recorded test outcome for CCc1c2c(nc3ccc(OCc4ccc(B(O)O)cc4)cc13)-c1cc3c(c(=O)n1C2)COC(=O)[C@]3(O)CC , thank you.
Result: active

Query: Dear all, I need the recorded test outcome for CC1CC(C)CC(C)C(O)/C(C#N)=C/C=C/CC(C2CCCC2C(=O)O)OC(=O)CC(O)C(C)C1 (centres undefined) , thank you.
Result: active

Query: Dear all, I need the recorded test outcome for C=C1CCC2C3(C)COC(C)(C)OC3CCC2(C)C1C/C=C1/C(=O)OCC1OC(C)=O (centres undefined) , thank you.
Result: inactive

----------
Entries and their GI50
- Tested on: T-47D breast
- PROTOCOL TEXT: NCI tumour cell line growth inhibition, 48 h

{"COMPOUND": "CC1=C2C(=C[C@@](C)(CO)[C@@H]2OC(=O)N(C)CCN(C)C(=O)OC(C)(C)C)C(=O)[C@](C)(O)C12CC2", "SYSTEM UNDER TEST": "T-47D breast", "GI50": "5.05 µM"}

Query: Requested read-out: GI50. Entry: c1ccc(C2ONC3=NCCN32)cc1 (stereo not given)
Result: 44 µM

Query: Requested read-out: GI50. Entry: Nc1ncn([C@@H]2S[C@H](CO)[C@@H](O)[C@@H]2F)c(=O)n1
Result: > 100 µM

Query: Requested read-out: GI50. Entry: O=C1OCC2=C1C(c1cccc(F)c1)c1cc3c(cc1N2CCO)OCO3 (stereo not given)
Result: 2.18 µM

Query: Requested read-out: GI50. Entry: CN1CCC(CNc2cc(C3(C(=O)Nc4cc(C(=O)Nc5ccc(Cl)c(C(F)(F)F)c5)ccc4F)CC3)ncn2)CC1
Result: 4.14 µM

----------
- Test system: MDA-N
- PROTOCOL TEXT: NCI tumour cell line growth inhibition, 48 h
Entries and their TGI

Query: Requested read-out: TGI. Entry: O=C(O)CC(Cc1ccccc1Cl)C(=O)O (stereo not given)
Result: > 100 µM

Query: Requested read-out: TGI. Entry: C[C@H](c1ccccc1)N1C(=O)[C@@H](O)[C@H]1[C@H](CO)OCc1ccccc1
Result: > 100 µM

Query: Requested read-out: TGI. Entry: Cn1c(=O)c2c(nc3n(CC(O)CCl)c(=O)ccn23)n(C)c1=O (stereo not given)
Result: > 100 µM

Query: Requested read-out: TGI. Entry: N#Cc1c(-c2ccc(Cl)cc2)c2c(nn3c4ccc5ccccc5c4nnc23)[nH]c1=O
Result: 5.78 µM

Query: Requested read-out: TGI. Entry: O=c1[nH]c(Nc2ccccc2)nc2c1ncn2CC(O)CSCCO (stereo not given)
Result: > 100 µM

Query: Requested read-out: TGI. Entry: Oc1cc(Cc2ccccc2)c(Cc2ccccc2)cc1O
Result: 3.04 µM

Query: Requested read-out: TGI. Entry: O=C(Nc1ccc(N2C(=O)CSC2c2ccccc2O)cc1)c1ccc(N2C(=O)CSC2c2ccccc2O)cc1 (stereo not given)
Result: > 100 µM

Query: Requested read-out: TGI. Entry: O=C(O)CN(CC(=O)O)C1CCCCC1N1CC(=O)OC(=O)C1 (stereo not given)
Result: > 100 µM

Query: Requested read-out: TGI. Entry: CC(=O)c1c(O)c(C)c(O)c(Cc2c(O)c3c(c(C(=O)/C=C/c4ccccc4)c2O)OC(C)(C)C=C3)c1O
Result: > 100 µM

Query: Requested read-out: TGI. Entry: COC(=O)Cc1cc(O)c2c(c1O)C(=O)c1ccccc1C2=O
Result: > 100 µM
